system: NCI-H522 lung; test: NCI-60 one-dose screen, 48 h (100 = growth as untreated, 0 = no growth, -100 = all killed); conditions: 10 µM
Compounds without any hit were thinned out: in the full panel of roughly 83,000, 20% have a hit.
Classes based on growth: bottom bin = under 70%, middle bin = from 70% up to 90%, top bin = 90% and over

compound=O=C(O)CCN1CCN(c2cccc(Cl)c2)CC1 system_tested="NCI-H522 lung" group="top bin"
compound=Cn1c2ccccc2c2nn(C(=O)c3ccccc3)c(=O)nc21 system_tested="NCI-H522 lung" group="top bin"
compound=FC(F)(F)c1cc(CNc2ncc(Br)c(Cl)n2)cc(C(F)(F)F)c1 system_tested="NCI-H522 lung" group="middle bin"
compound=Cc1nn(CC(=O)O)c2c1C(=O)CC(C)(C)C2 system_tested="NCI-H522 lung" group="top bin"
compound=Cc1nc2cc(Nc3nc(NCCN)nc(Nc4ccc(F)cc4)n3)ccc2n1Cc1ccccc1 system_tested="NCI-H522 lung" group="middle bin"
compound=CCN(C(=O)c1ccc2c3c(cccc13)C=C2)c1ccccc1 system_tested="NCI-H522 lung" group="middle bin"
compound=CN1CCC(OC2c3ccccc3CCc3ccccc32)CC1 system_tested="NCI-H522 lung" group="top bin"
compound=Cn1c2ccc(Cl)cc2c2nn(C(=O)c3ccccc3)c(=O)nc21 system_tested="NCI-H522 lung" group="top bin"

Prompt: Tag the class for Clc1ccc(C2=Nc3cccc4cccc(c34)N2)cc1Cl
Response: bottom bin

Prompt: Into which category would you place Nc1nc(N)c(N=Nc2c(Br)cc(S(N)(=O)=O)cc2Br)c(N)n1 ?
Response: top bin

Prompt: // bin(item) where item = O=S(=O)(Nc1ncccn1)c1ccc(Nc2ccc3nnc(-c4ccncc4)n3n2)cc1
Response: top bin

Prompt: Dear colleague, I would appreciate it if you could identify the bin for COc1ccc(OC)c2ncccc12 and reply at your convenience.
Response: middle bin

Prompt: // bin(item) where item = O=C1C=CC(=O)N1CCCCCCCCCCN1C(=O)C=CC1=O
Response: bottom bin

Prompt: Which bin should I file O=C1/C(=C/c2ccc([N+](=O)[O-])cc2)Oc2ccc(O)cc21 under?
Response: middle bin

====

system: M14 melanoma; assay: NCI-60 one-dose screen, 48 h (100 = growth as untreated, 0 = no growth, -100 = all killed); settings: 10 µM unless noted
The panel holds about 83,000 compounds, 20% with a hit somewhere; the sample as a whole holds those more often.
Result Type: growth (%)
Could you give me the number in %? Just the number is fine.

The cases that follow already have their growth on record.
compound=CON=C1C[C@]2(C[C@@H]3C[C@@H](C/C=C(\C)C[C@@H](C)/C=C/C=C4\CO[C@@H]5[C@H](O)C(C)=C[C@@H](C(=O)O3)[C@]45O)O2)O[C@H](/C(C)=C/C(C)C)[C@H]1C observed_measurement=57.4
compound=CC(=O)Nc1ccc(S(=O)(=O)N/N=C\c2ccc(Cl)c(Cl)c2)cc1 observed_measurement=102
compound=CCCOC(=O)c1ccc2c(c1)[N+](=O)C(C(=O)c1ccccc1)=C(C(F)(F)F)[N+]2=O observed_measurement=-70.3
compound=Clc1ccccc1Nc1ccc2nnc(-c3ccncc3)n2n1 observed_measurement=112
compound=Cc1ccc(C(=O)Nc2ccccc2N)cc1 observed_measurement=77.5
compound=FC(F)(F)Oc1ccc2c(c1)C[C@H]1C[C@@H](c3ccoc3)N2O1 observed_measurement=117

Prompt: Given CNc1ccc(Br)cc1-c1n[nH]c(=O)[nH]c1=O , state its recorded growth.
Response: 100

Prompt: Data request, read-out growth, for CC(=O)N(CC(O)CO)c1c(I)c(C(=O)NCCO)c(I)c(C(=O)NCC(O)CO)c1I (centres undefined)
Response: 92.6

Prompt: // lookup growth for O=[N+]([O-])c1cc2c(cc1Br)C1C(C3C2C(Cl)(Cl)C(Cl)=C(Cl)C3(Cl)Cl)C(Cl)(Cl)C(Cl)=C(Cl)C1(Cl)Cl (centres undefined)
Response: 90.6

====

test system: SK-MEL-5 melanoma; test: NCI-60 one-dose screen, 48 h (100 = growth as untreated, 0 = no growth, -100 = all killed); settings: 10 µM unless noted
Compounds without any hit were thinned out: in the full panel of roughly 83,000, 20% have a hit.
Range-based classes on measured growth: lower band = under 20%, central band = from 20% up to 90%, upper band = 90% and over

compound=Cn1c2c(cc(S(=O)(=O)c3ccccc3)c1=O)CCc1c-2cnn1-c1cccc(Cl)c1 group="central band"

Prompt: Classify this compound: O=C(NCc1ccc(F)cc1)C1CN(c2ccc(Cl)cc2)N(c2ccc(Cl)cc2)C1=O (stereo not given)
Response: central band

Prompt: Category lookup for the compound O=C1/C(=C/c2ccccc2F)CNC/C1=C\c1ccccc1F
Response: lower band

Prompt: Any idea which band Cc1cc(=O)oc2c1ccc1oc(C(=O)c3ccccc3)c(C)c12 is in?
Response: central band

Prompt: Could you place O=C(COc1ccc(/C=C2\CSc3ccccc3C2=O)cc1)c1ccc(Cl)cc1 in its proper category? Many thanks.
Response: upper band

Prompt: For NS(=O)(=O)c1cc(Br)c2c(c1)S(=O)(=O)NCN2 , which growth bin applies?
Response: upper band

Prompt: Assign a category based on measured growth for C[C@H]1C(=O)C23CCC1C[C@@]21O[C@@H]2C(C)(C)C=CC(=O)C23COC1=O and give only the class name.
Response: upper band

====

tested on: U251 CNS; test: NCI-60 one-dose screen, 48 h; conditions: 10 µM unless noted
This is part of a sample that, as a whole, favours compounds with a hit. Of some 83,000 tested, about 20% had one in any assay. The source made the active and inactive calls. How the source made its calls: active means growth percent below 10; inactive means the rest.
API: response.call in active, inactive

Consider the following illustrative entries.
compound=Cc1ccccc1-n1nnc(C(=O)Nc2nc(-c3ccccc3)c(-c3ccccc3)s2)c1C group=inactive
compound="CC(C)(C)[Si](C)(C)OC1[C@@H](COC(=O)NC(=O)CCl)O[C@@H](n2cnc3c(N)ncnc32)[C@H]1O[Si](C)(C)C(C)(C)C (some centres not stated)" group=inactive
compound=Cc1cc(NS(=O)(=O)c2ccc(NC(=O)COc3ccc(-c4cc5ccccc5[nH]4)cc3)cc2)no1 group=inactive
compound="COc1ccc(C2CC(c3cc(OC)c(OC)c(OC)c3)=NN2c2ccc(S(N)(=O)=O)cc2)cc1 (configuration not stated)" group=inactive
compound=CNc1ccc(Br)cc1-c1n[nH]c(=O)[nH]c1=O group=inactive

Prompt: Which outcome was entered for the compound Clc1nc(-c2ccccn2)nc2sc3c(c12)CCCCCC3 in this test?
Response: inactive

Prompt: What did the test return for C[C@H]1C(=O)C23CCC1C[C@@]21O[C@@H]2C(C)(C)C=CC(=O)C23COC1=O ?
Response: inactive

Prompt: Assay result, entry COc1cccc(OC)c1OC(=O)c1ccccc1 — outcome?
Response: inactive

Prompt: Each compound tested received a call. Report the one for O=C1/C(=C/c2ccc(Cl)cc2)N=C(c2ccccc2)N1CCc1cccs1 .
Response: inactive

Prompt: Would you mind telling me which call this test gave COc1ccc(S(=O)(=O)ON=C2C=C(C)C(=O)C(C)=C2)cc1 ?
Response: inactive

Prompt: How was Cc1nn(CC(=O)O)c2c1C(=O)CC(C)(C)C2 classified in this test?
Response: inactive

Prompt: Any idea what this test logged for O=C1C(N2CCOCC2)=Cc2cccc3cccc1c23 ?
Response: inactive

Prompt: Look up the recorded call for O=c1oc2ccccc2cc1-c1csc(N=Nc2c(O)[nH]c3ccc(Cl)cc23)n1 in this test.
Response: inactive

Prompt: GET /call?item= N#CCCN1CCN(CCC#N)C1=S returns the recorded outcome of this test.
Response: inactive

Prompt: Would you mind telling me which call this test gave O=c1c2cc(F)ccc2oc2c(NCCNCCO)nc3ccccc3c12 ?
Response: inactive

Prompt: What call does the record list for COc1ccc(C2SC(C)C(=O)N2CCc2cccs2)cc1OC (configuration not stated) ?
Response: inactive

Prompt: In this assay, the call recorded for N#Cc1c(O)c2c(c(O)c1C#N)C(=O)c1ccccc1C2=O was what?
Response: active

Prompt: Would you mind telling me which call this test gave C[C@@H](Oc1cc(-c2cnn(C3CC4(CCNCC4)C3)c2)cnc1N)c1c(F)ccc(Cl)c1Cl ?
Response: inactive

Prompt: What did this assay record as the result for CCCCCCCC/C=C\CCCCCCCCOc1cccc(CC(=O)NCC[N+]2(C)CCCCC2)c1 ?
Response: inactive

Prompt: Call for entry Cc1cc(C)c(S(=O)O)c(C)c1 :
Response: inactive

Prompt: Just curious, what result did O=C1c2c(c3c4cc(Br)ccc4[nH]c3c3ccc4ccccc4c23)C(=O)N1O get here?
Response: inactive

Prompt: Query: recorded result category for COCCOC1=C(Cl)C(=O)c2ccccc2C1=O in this test
Response: active

====

System: SF-539 CNS
Test: NCI-60 one-dose screen, 48 h (100 = growth as untreated, 0 = no growth, -100 = all killed)
Settings: 10 µM unless noted
Protocol: Cells are grown in 96 well plates and exposed to the test compound for 48 hours. Compounds are tested at a single concentration, which is 10^-5 M for most compounds. The reported endpoint is percent growth (GI% or GIPRCNT), where numbers from 0 - 100% represent growth inhibition, and numbers from -100% - 0 represent cell death. For example, a value of 40 represents 60% growth inhibition. A value of 0 means no net growth occurred over the course of the experiment. […]
This is part of a sample that, as a whole, favours compounds with a hit. Of some 83,000 tested, about 20% had one in any assay. Activity calls are given as the source filed them. The calls were made as follows: active = growth percent below 10; inactive = the rest.
Measured growth values are reported for all entries that follow.

Would you please look over these solved cases?
compound=Cc1nc(-c2ccccc2)cc2c(O)c(C(=O)N/N=C/Cc3ccccc3)[nH]c(=O)c12 observed_measurement="103% (inactive)"
compound=CCCCNNC(=O)c1ccc(Br)cc1 observed_measurement="61.4% (inactive)"
compound=Brc1ccc(Br)nn1 observed_measurement="-53.1% (active)"
compound=O=S(=O)(/N=C1C=C/C(=N\S(=O)(=O)c2ccccc2)c2ccccc2\1)c1ccccc1 observed_measurement="123% (inactive)"
compound=COc1nc2c(cc1S(=O)(=O)c1ccccc1)CCc1c-2cnn1-c1ccccc1 observed_measurement="79% (inactive)"
compound="COc1ccc(OC2=C(C#N)C(=N)N3c4ccccc4Sc4ccccc4C3N2)cc1 (stereo not given)" observed_measurement="91.5% (inactive)"

Prompt: Fill in: growth of Cc1cccc2c(=O)c3c(sc12)c(NCCNCCO)nc1ccccc13 is ___
Response: 50.6% (inactive)
